meta.source: the supplement of paper PMC9732359

So I've got a bunch of sequences here, and I need their protein stability index values.
Assay: protein stability index of a GFP-peptide fusion (yeast GPS) (PSI 1-4); higher = more stable; sorted into four equal gates, so the index is relative within each strain
Conditions: pdr5∆
Answers are plain numbers.

Some entries whose results are on file:
>>> df
                   residues                  readout  value_reported
0  VLAGDTRNITDYSINSR [PRE7]  protein stability index            3.29
1  EASNTPIEHQFNPYGDN [PRE7]  protein stability index            3.33

Next:
Req: Name the recorded protein stability index of the sequence listed here: EVRRAAMLNLINDNNTR [YCG1]
Resp: 3.41

---

Assay: protein stability index of a GFP-peptide fusion (yeast GPS) (PSI 1-4); higher = more stable; sorted into four equal gates, so the index is relative within each strain
Conditions: doa10∆
For each of the sequences below, state its protein stability index.
Give bare numbers.

Observe how each entry below is paired with its result.
>>> print(df.to_string())
                     residues                  readout  value_reported
0  LMTSHTKGDTSKATGAP [RTT102]  protein stability index            3.12
1  NDTLPDEISPELLSKYK [SNU114]  protein stability index             2.9

Parameters: items (list). Returns: protein stability index for each item.
1. SSVKCFGPIKVELPTKE [FAS1]
2. LDGKFSLFHTAVSVANG [RPN2]
3. LTSNISSLVRSCGEEEF [REC8]

Resp:
2.5
2.09
3.33

---

Would you mind telling me the reported protein stability index of each entry?
Experiment: protein stability index of a GFP-peptide fusion (yeast GPS) (PSI 1-4); higher = more stable; sorted into four equal gates, so the index is relative within each strain
Details: doa10∆
Answers are plain numbers.

>>> df
                            residues  value_reported
0           RIRKLTGQNFLTSNISS [REC8]             1.6
1           ETKVDELRYQSHILNSH [DSN1]            2.38
2           SEGYQKTFSRLDALTRH [RPN4]            1.17
3           FKTYRNETIIDNFSPHQ [SMC3]            1.97
4          VRSTIKFQLKKVLCLAV [RPL1A]            1.45
5  DSIPRDVAYLLKSESAT [YGL172W/NUP49]            2.74
6           PKYESLKLEYYNLLVKI [RPN5]             2.1
7           QKQLPQKTRVKLLFDHD [ESC2]            2.86

Dear colleague, could you please provide protein stability index for the sequences listed below?
1. QTLKGVGVENNGQYAAF [RPC37]
2. GGSSDTADKIRIHAKNF [GAL11]
3. EAEIECFDSTTGRDAGF [RRP40]

Resp:
1: 3.12; 2: 1.67; 3: 3.15

---

Test: protein stability index of a GFP-peptide fusion (yeast GPS) (PSI 1-4); higher = more stable; sorted into four equal gates, so the index is relative within each strain
Conditions: ubr1∆
Everything with protein stability index lower than 3 is false; everything else, including exactly 3, is true.

A selection of reference data follows.
>>> df
                   residues  category
0  KDNVEHLVMRAISLGLL [RPN9]     false
1  LLLNYLELIGVLSINPD [MED7]     false
2  SMVLFFVCLSCSHIFTS [RPB9]     false

Req: Does the reported protein stability index for DQITKMKDRLVEWNDQV [RPN9] fall at or above the 3 mark?
Resp: true

Req: Check the entry TKIAQSQTMAETYVASY [ECM29] : does protein stability index equal or exceed 3?
Resp: false

Req: State whether the measured protein stability index reaches 3, counting equality as reaching it, for RIRKLTGQNFLTSNISS [REC8]
Resp: false

Req: Test whether the sequence LSLGEAFKKIDAITVKD [COR1] records protein stability index of 3 or higher.
Resp: true

Req: protein stability index >= 3 for TFAQEKLNTFENDLLQE [SMC3] ?
Resp: false

Req: protein stability index >= 3 for RNNLPAKTFGASVRIFL [RPL33A] ?
Resp: false

---

Assay: protein stability index of a GFP-peptide fusion (yeast GPS) (PSI 1-4); higher = more stable; sorted into four equal gates, so the index is relative within each strain
Conditions: ubr1∆
# label = true (1) if protein stability index >= 3 else false (0)

Illustrative cases are given below, each with its answer.
                             residues   category
0           SAESWGTGRAVARIPRV [RPL4A]  false (0)
1            QINIMPSLKAHFTEIKL [SIR3]  false (0)
2          HKHREARGLTATGKKSR [RPL15A]   true (1)
3            LRDYTTVPRIVQLLSKS [RPN2]  false (0)
4            RSMDAEQLGHASKRHKP [RPP1]  false (0)
5  GLSILFLTGQFASNKKI [YML103C/NUP188]  false (0)
6            PMHSIMPNSSLQPFYSQ [DSN1]  false (0)
7            GKTSFFQALGVPTKIAR [RPP0]   true (1)
8            LHYDKDYNLRIYCYFLI [SSN8]  false (0)
9            NNVDNKYKSGGKFSFSP [SSN2]  false (0)

With those in mind, consider the next sequence.
Req: In plain terms: is recorded protein stability index at least 3 for ESMLHLSIWIKNYPEYF [IRR1] ?
Resp: false (0)

---

Test: protein stability index of a GFP-peptide fusion (yeast GPS) (PSI 1-4); higher = more stable; sorted into four equal gates, so the index is relative within each strain
Details: san1∆
readout: protein stability index
One number for each entry.

Sample records with protein stability index:
In [3]: df
Out[3]:
                    residues  value_reported
0   MTLEDNNVTSNPSEFTP [SSN2]            2.92
1   NAVISHANAAAVYFADT [SIN4]            2.06
2  TKTRKHRGHVSAGKGRI [RPL28]            2.09
3   LENKADPLVSLMMVEKV [RPT6]            2.35

Provide protein stability index for all items below, preserving their order.
1. VRSTIKFQLKKVLCLAV [RPL1A]
2. NGDKMPLKFKLGPLSYQ [YJR042W/NUP85]

Resp:
[1.29, 3.02]

---

Test: protein stability index of a GFP-peptide fusion (yeast GPS) (PSI 1-4); higher = more stable; sorted into four equal gates, so the index is relative within each strain
Conditions: ubr1∆
Kindly return 1.0 if reported protein stability index is no lower than 3; return 0.0 if it is lower.

In [3]: df
Out[3]:
                   residues  category
0  PSTRCKLKLLRMERIKD [RPT2]       0.0

Req: Check if protein stability index >= 3 (inclusive). Item: NSTDGAKITEIGSTSKR [YIL149C/MLP2]
Resp: 1.0

Req: Dear colleague, could you confirm whether KIQFILEQMELSILKGD [RPN5] has protein stability index at or above 3?
Resp: 0.0

---

Test: protein stability index of a GFP-peptide fusion (yeast GPS) (PSI 1-4); higher = more stable; sorted into four equal gates, so the index is relative within each strain
Conditions: san1∆
Give condition met when the value for protein stability index is at least 3. Give condition not met when it is less.

Some entries whose results are on file:
In [3]: df
Out[3]:
                             residues           category
0    SDEKKDGDASKPAFSFG [YJL041W/NSP1]      condition met
1            FKTYRNETIIDNFSPHQ [SMC3]  condition not met
2            MSASNANDFQLTIVTCK [SRB8]  condition not met
3            IVDKYIGESARIIREMF [RPT4]  condition not met
4            KILNLEKPLILADYIVE [NUT1]  condition not met
5  LEASLNSITKDNIDYAP [YJL039C/NUP192]  condition not met
6           GQNLKDLLVNFSAGAAA [RPP1A]  condition not met
7            SLEQRQEVTKFAKANIG [RPN4]  condition not met
8            AISLGLLKGSIDQVNEL [RPN9]      condition met
9   NISNAKLANFFSKKGNE [YAR002W/NUP60]  condition not met

Req: Hi team, for AFNFSFNTSRNVEPTEN [YAR002W/NUP60] , is the recorded protein stability index at or above 3?
Resp: condition met

Req: Item TSLLYLSTLEPSTSITL [RPN9] with protein stability index of 3 or above?
Resp: condition not met

Req: protein stability index >= 3 for VRDELRKVEKEKNEKER [UBP6] ?
Resp: condition met

Req: Has EIFQLFTNPSVDIQIIN [SWI1] a recorded protein stability index greater than or equal to 3?
Resp: condition not met

Req: Determine whether measured protein stability index meets or exceeds 3 for HYGQTLGKKKNVKEEET [RPS8A]
Resp: condition not met

Req: Kindly determine if protein stability index recorded for RDVMCTDGVIGSRTTTN [RPO31] is above or exactly 3.
Resp: condition met

Req: Quick check: does SVLLHHKTMSIVGVLQD [RPT2] have protein stability index greater than or equal to 3?
Resp: condition not met

Req: Exam item: decide whether the reported protein stability index for KKRIRLPSEERIQKIIS [YIL149C/MLP2] is at least 3.
Resp: condition not met

Req: Check the entry FDSTAFNATVDETKGFD [MED2] : does protein stability index equal or exceed 3?
Resp: condition met

Req: Does the sequence PLAPAPINLPPQIAQLP [SNF5] have recorded protein stability index that is 3 or more?
Resp: condition not met

Req: Is reported protein stability index greater than or equal to 3 here: LLPNSKNVENTKNLSIL [DSN1]
Resp: condition not met

Req: Check the entry RNAQAQREAAAEYAQLL [RPS6A] : does protein stability index equal or exceed 3?
Resp: condition not met

Req: Given IRTQVNTGGESVVKKED [RGR1] , state whether its protein stability index is at least 3.
Resp: condition met

Req: Test whether the sequence GLSILFLTGQFASNKKI [YML103C/NUP188] records protein stability index of 3 or higher.
Resp: condition not met
